The measured values listed here are drawn from patent US11760761B2.

# targetUnderTest: PD-1/PD-L1 interaction (Homo sapiens (Human))
# Sequence (Q9NZQ7 19-290): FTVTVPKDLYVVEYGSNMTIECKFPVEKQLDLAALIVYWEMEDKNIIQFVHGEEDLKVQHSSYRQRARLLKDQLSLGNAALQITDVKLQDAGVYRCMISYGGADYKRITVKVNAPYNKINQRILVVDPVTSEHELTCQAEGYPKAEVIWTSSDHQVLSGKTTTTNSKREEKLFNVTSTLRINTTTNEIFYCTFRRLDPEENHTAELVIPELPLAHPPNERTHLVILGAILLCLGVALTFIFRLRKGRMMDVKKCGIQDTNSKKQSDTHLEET
# methodDescription: PD-1/PD-L1 NFAT Reporter Assay (Jurkat T cells / PD-L1 expressing CHO cells co-culture)
# Format: cell-based
# conditionsUsed: Jurkat; maximum NFAT-activation level relative to the positive control (10 nM Atezolizumab)
experimentalEndpoint: Emax (%)
Write it as a number; the unit % goes unstated.

| molecule | Emax / % |
| --- | --- |
| COc1cc(-c2cccc(-c3cccc(-c4cnc(CN5CC6(CCC(=O)N6)C5)c(OC)n4)c3Cl)c2Cl)cc2c1[C@@H](N1CC(O)C1)CC2 (single isomer, unassigned) | 102 |
| COc1cc(-c2cccc(-c3cccc(-c4cnc(CN5CC6(CCC(=O)N6)C5)c(OC)n4)c3Cl)c2Cl)cc2c1[C@H](N1CC3(CCC(=O)N3)C1)CC2 (single isomer, unassigned) | 145 |
| COc1cc(-c2cccc(-c3cccc(-c4cnc(CN5CC6(CCC(=O)N6)C5)c(OC)n4)c3Cl)c2Cl)cc2c1C[C@@H](N1CC(O)C1)C2 (single isomer, unassigned) | 172 |
| COc1cc(-c2cccc(-c3cccc(-c4cnc(CN5CC6(CCC(=O)N6)C5)c(OC)n4)c3Cl)c2Cl)cc2c1[C@H](N1CC(C(=O)O)C1)CC2 (single isomer, unassigned) | 65 |

Qu. Quick check: Emax of CCOC(=O)C1CN([C@H]2CCc3cc(-c4cccc(-c5cccc(-c6cnc(CN7CC8(CCC(=O)N8)C7)c(OC)n6)c5Cl)c4Cl)cc(OC)c32)C1 (single isomer, unassigned) ?
Ans. 84
